Experimental Protocol: recombinant UMI read abundance after kanamycin selection (control-corrected) (log10(CPM+1)); higher = more efficient recombination; extreme values may be limits of the assay; sequences stand for … in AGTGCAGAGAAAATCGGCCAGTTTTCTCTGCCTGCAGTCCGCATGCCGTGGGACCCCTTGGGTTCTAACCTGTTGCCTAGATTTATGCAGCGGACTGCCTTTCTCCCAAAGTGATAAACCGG…AGGTTGGTTTCACT; site = the 11-nt donor
// values below are reported recombinant UMI read abundance (log10)
Answer with the value's number alone.

{"columns": ["Polymer Sequence", "Measurement"],
 "data": [
  ["CCCGGCCCATGGACCGGTTTTCCCGGTAATCCGTATTTGTT (site CGCGGCCCTAA)", 0.00519],
  ["CGGGCACCATGGACCGGTTTTCCCGGTAATCCGTATTTGCA (site TGGGCACCTTG)", 0],
  ["GTCCGAGCATGGACCGGTTTTCCCGGTAATCCGTATTTGCA (site GTGCGAGCTTG)", 0.297],
  ["AGTAGGGCATGGACCGGTTTTCCCGGTAATCCGTATTTGAG (site AGTAGGGCTCT)", 1.41],
  ["CATTTCCCATGGACCGGTTTTCCCGGTAATCCGTATTTGCT (site CAATTCCCTAG)", 0.464],
  ["CGAGAACCATGGACCGGTTTTCCCGGTAATCCGTATTTGGG (site CGAGAACCTCC)", 0],
  ["ACCTTGACATGGACCGGTTTTCCCGGTAATCCGTATTTGGG (site ACCTAGACTCC)", 0.0118],
  ["CAAGAAGCATGGACCGGTTTTCCCGGTAATCCGTATTTGCT (site CAAGCAGCTAG)", 0],
  ["CGGACATCATGGACCGGTTTTCCCGGTAATCCGTATTTGGT (site CGGACATCTAC)", 2.13]
]}

Attention now turns to another entry.
Exercise: GET /values?readout=recombinant UMI read abundance (log10)&item= CTCTACACATGGACCGGTTTTCCCGGTAATCCGTATTTGCG (site CTCTACACTGG)
Solution: 0.00583

----------
Experimental Protocol: recombinant barcode read abundance after kanamycin selection (control-corrected) (log10(CPM+1)); higher = more efficient recombination; sequences stand for … in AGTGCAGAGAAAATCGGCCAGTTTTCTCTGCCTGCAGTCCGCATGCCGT…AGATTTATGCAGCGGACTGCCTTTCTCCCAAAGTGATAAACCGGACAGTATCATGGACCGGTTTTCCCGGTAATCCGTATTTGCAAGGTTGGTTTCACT; site = the 11-nt target
Endpoint Name: recombinant barcode read abundance (log10)
Would you mind answering with just the numeric figure?

{"columns": ["Polymer Sequence", "Measurement"],
 "data": [
  ["CCGCGGACTTGGGTTCTAACCTGTTGCTT (site CCGCAGACTAA)", 0.106]
]}

Exercise: I'd like to know its recombinant barcode read abundance (log10). The sequence in question is ATTAGGACTTGGGTTCTAACCTGTTGCGA (site ATTAGGACTTC)
Solution: 2.3

Exercise: What does the record list as recombinant barcode read abundance (log10) for TCGCAGACTTGGGTTCTAACCTGTTGCAC (site TGGCCGACTGT) ?
Solution: 0.119

Exercise: Data request, read-out recombinant barcode read abundance (log10), for GCGACTCCTTGGGTTCTAACCTGTTGCTA (site GCGACTCCTTA)
Solution: 0.619

Exercise: What recombinant barcode read abundance (log10) value was documented for this sequence, TGTTGAGCTTGGGTTCTAACCTGTTGCCG (site TGTCGAGCTCG) ?
Solution: 0.192

Exercise: Look up recombinant barcode read abundance (log10): GCACTCCCTTGGGTTCTAACCTGTTGCCT (site GCACTCCCTAG)
Solution: 0.0516

Exercise: Using the record for GAGCGAGCTTGGGTTCTAACCTGTTGCCG (site GAGCGAGCTCG) , report its recombinant barcode read abundance (log10).
Solution: 1.11

Exercise: Entry under review: GGGTCCACTTGGGTTCTAACCTGTTGCTT (site GGGTCCACTAA) . Reported recombinant barcode read abundance (log10)?
Solution: 1.51

Exercise: Which recombinant barcode read abundance (log10) is listed for TCCGTGGCTTGGGTTCTAACCTGTTGCCT (site TCCGTGCCTAG) ?
Solution: 0.261

Exercise: Give its recombinant barcode read abundance (log10) value. Item: TTACGTACTTGGGTTCTAACCTGTTGCCT (site ATACGTACTAG)
Solution: 0.131

Exercise: Field request: recombinant barcode read abundance (log10) | item: ACAAAGACTTGGGTTCTAACCTGTTGCGC (site ACAAAGACTGC)
Solution: 0.656

Exercise: Given the sequence GTACTCTCTTGGGTTCTAACCTGTTGCCA (site GTACTCTCTTG) , what is its reported recombinant barcode read abundance (log10)?
Solution: 1.38

Exercise: Can you look up the measured recombinant barcode read abundance (log10) of ATTAGGACTTGGGTTCTAACCTGTTGCAG (site ATTAGGACTCT) for me?
Solution: 2.1

Exercise: Tell me the measured recombinant barcode read abundance (log10) of CCACTTCCTTGGGTTCTAACCTGTTGCCT (site CCACTCCCTAG) , please.
Solution: 0.176

Exercise: I am curious: what recombinant barcode read abundance (log10) value has been reported for TTAAAACCTTGGGTTCTAACCTGTTGCCT (site CTAAAACCTAG) ?
Solution: 0.0966

Exercise: For GCACCGCCTTGGGTTCTAACCTGTTGCCT (site GCACCGCCTAG) , what is its reported recombinant barcode read abundance (log10)?
Solution: 1.09

Exercise: Field request: recombinant barcode read abundance (log10) | item: CAACGACCTTGGGTTCTAACCTGTTGCCT (site AAACGACCTAG)
Solution: 0.172

Exercise: Quick one: recombinant barcode read abundance (log10) of TAGTAGTCTTGGGTTCTAACCTGTTGCGT (site TAGTAGTCTAC) ?
Solution: 2.79

Exercise: Given the sequence CCTCGCACTTGGGTTCTAACCTGTTGCGA (site CCTAGCACTTC) , what is its reported recombinant barcode read abundance (log10)?
Solution: 0.126

Exercise: Tell me the measured recombinant barcode read abundance (log10) of CACAGCACTTGGGTTCTAACCTGTTGCCT (site CACATCACTAG) , please.
Solution: 0.0547

Exercise: Dear colleague, I am looking for the recorded recombinant barcode read abundance (log10) of the following sequence: TTCGGCTCTTGGGTTCTAACCTGTTGCTA (site CGATCACCTAG)
Solution: 0.0491

----------
Experimental Protocol: recombinant barcode read abundance after kanamycin selection (control-corrected) (log10(CPM+1)); higher = more efficient recombination; sequences stand for … in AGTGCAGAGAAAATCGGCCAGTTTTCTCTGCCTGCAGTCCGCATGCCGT…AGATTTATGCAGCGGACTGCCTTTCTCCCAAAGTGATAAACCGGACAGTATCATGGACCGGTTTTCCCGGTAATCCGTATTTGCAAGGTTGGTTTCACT; site = the 11-nt target
Endpoint Name: recombinant barcode read abundance (log10)
# output: bare number, no unit

{"columns": ["Polymer Sequence", "Measurement"],
 "data": [
  ["CTCCTCTCTTGGGTTCTAACCTGTTGCCT (site CTCCTCCCTAG)", 0.862],
  ["GCAAGGCCTTGGGTTCTAACCTGTTGCCT (site CCAAGGCCTAG)", 0.721],
  ["TAGCCTACTTGGGTTCTAACCTGTTGCGC (site TAGCCTACTGC)", 1.84],
  ["CGACCTACTTGGGTTCTAACCTGTTGCTA (site CGACCTACTTA)", 0.088],
  ["TAGAACTCTTGGGTTCTAACCTGTTGCCG (site TAGAACTCTCG)", 0.591],
  ["CAAAGATCTTGGGTTCTAACCTGTTGCCT (site CAAAGATCTAG)", 0.821]
]}

Exercise: What does the data say about its recombinant barcode read abundance (log10)? Entry: ATAAGTGCTTGGGTTCTAACCTGTTGCCA (site GTGAGTGCTTG)
Solution: 0.0783

Exercise: Give its recombinant barcode read abundance (log10) value. Item: GTATCAGCTTGGGTTCTAACCTGTTGCCT (site GTATCATCTAG)
Solution: 0.0176

Exercise: Please look up its recombinant barcode read abundance (log10): GGTGGGTCTTGGGTTCTAACCTGTTGCGT (site GGTGGGTCTAC)
Solution: 3.03

Exercise: Record request: recombinant barcode read abundance (log10) value, item ACGCACCCTTGGGTTCTAACCTGTTGCCA (site ACGCACCCTTG)
Solution: 0.379

----------
Experimental Protocol: recombinant barcode read abundance after kanamycin selection (control-corrected) (log10(CPM+1)); higher = more efficient recombination; sequences stand for … in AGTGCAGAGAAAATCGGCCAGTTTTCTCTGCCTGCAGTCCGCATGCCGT…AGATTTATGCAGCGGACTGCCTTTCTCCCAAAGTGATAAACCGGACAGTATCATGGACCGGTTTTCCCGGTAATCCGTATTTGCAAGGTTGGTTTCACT; site = the 11-nt target
Endpoint Name: recombinant barcode read abundance (log10)
Respond numerically, and do not add a unit to the figure.

Check out these entries, answers already filled in.
{"columns": ["Polymer Sequence", "Measurement"],
 "data": [
  ["GCTGGACCTTGGGTTCTAACCTGTTGCCT (site GCTGGACCTAG)", 2.15],
  ["ACGCACACTTGGGTTCTAACCTGTTGCCT (site CCGCACACTAG)", 0.182],
  ["AGACGTACTTGGGTTCTAACCTGTTGCGT (site TAGTTATCTTA)", 0.102],
  ["GTGGGCCCTTGGGTTCTAACCTGTTGCCT (site GTGGGCCCTAG)", 2.07],
  ["ATTGGATCTTGGGTTCTAACCTGTTGCCT (site ATTGGATCTAG)", 0.391]
]}

Exercise: recombinant barcode read abundance (log10) for CACAGCACTTGGGTTCTAACCTGTTGCCT (site CACACCACTAG) ?
Solution: 0.00856

Exercise: Fill in: recombinant barcode read abundance (log10) of GTGTGTACTTGGGTTCTAACCTGTTGCCT (site GTGTGTACTAG) is ___
Solution: 1.21
